Each recorded value in this set is attributed to ChEMBL document CHEMBL3352747.

system-under-test: Bile acid receptor (Homo sapiens) (UniProt Q96RI1)
Sequence (Q96RI1 whole entry, the tested form may be a part): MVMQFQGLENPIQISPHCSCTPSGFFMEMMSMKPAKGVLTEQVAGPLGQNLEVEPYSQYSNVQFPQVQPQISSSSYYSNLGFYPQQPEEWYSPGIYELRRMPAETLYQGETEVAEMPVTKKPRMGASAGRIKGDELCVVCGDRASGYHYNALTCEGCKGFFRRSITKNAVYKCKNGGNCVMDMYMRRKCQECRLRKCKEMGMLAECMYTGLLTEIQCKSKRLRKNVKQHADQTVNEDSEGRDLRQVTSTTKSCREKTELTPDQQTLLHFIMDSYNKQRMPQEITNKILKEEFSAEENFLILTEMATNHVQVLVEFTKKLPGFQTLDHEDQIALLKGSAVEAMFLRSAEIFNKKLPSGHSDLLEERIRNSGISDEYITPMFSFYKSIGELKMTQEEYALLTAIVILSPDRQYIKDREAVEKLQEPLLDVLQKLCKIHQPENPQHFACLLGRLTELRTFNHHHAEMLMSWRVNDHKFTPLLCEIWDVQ
protocol-notes: Agonist activity at FXR (unknown origin) assessed as ligand-mediated interaction of the SRC1 peptide with protein LBD by FRET assay relative to GW4064
parameter: Emax

Recorded Emax, per entry:
- smiles-data: "CC(C)c1nnn(-c2c(Cl)cccc2Cl)c1COc1ccc(/C=C/c2cccc(C(=O)O)c2)c(Cl)c1"
  parameter: "Emax"
  value: "106%"
- smiles-data: "CC(C)c1ncn(CCc2c(Cl)cccc2Cl)c1COc1ccc(/C=C/c2cccc(C(=O)O)c2)c(Cl)c1"
  parameter: "Emax"
  value: "49%"
- smiles-data: "CC(C)c1oc(=O)n(Cc2c(Cl)cccc2Cl)c1COc1ccc(/C=C/c2cccc(C(=O)O)c2)c(Cl)c1"
  parameter: "Emax"
  value: "90%"

Shifting focus to the molecule that follows.
Returns the measured Emax for the input molecule. Input: CC(C)c1cnn(-c2c(Cl)cccc2Cl)c1COc1ccc(/C=C/c2cccc(C(=O)O)c2)c(Cl)c1
105%

----------
Quick reference for Emax among some compounds
system-under-test: Bile acid receptor (Homo sapiens) (UniProt Q96RI1)
protocol-notes: Agonist activity at FXR (unknown origin) transfected into african green monkey CV1 cells assessed as ligand-mediated transcription by luciferase reporter/ transient transfection assay relative to GW4064
Type: cell-based
conditions: CV-1
Output spec: scalar in %, unitless text.

- smiles-data: "CC(C)c1oc(=O)n(Cc2c(Cl)cccc2Cl)c1COc1ccc(/C=C/c2cccc(C(=O)O)c2)c(Cl)c1"
  parameter: "Emax"
  value: 104

Can you look up the measured Emax of CC(C)n1nnc(-c2c(Cl)cccc2Cl)c1COc1ccc(/C=C/c2cccc(C(=O)O)c2)c(Cl)c1 for me?
47

Give the measured Emax of CC(C)c1oc(=O)n(CCc2c(Cl)cccc2Cl)c1COc1ccc(/C=C/c2cccc(C(=O)O)c2)c(Cl)c1 .
82

What value of measured Emax is listed for CC(C)c1cnn(-c2c(Cl)cccc2Cl)c1COc1ccc(/C=C/c2cccc(C(=O)O)c2)c(Cl)c1 ?
100

----------
Consider the following molecules and their measured EC50 readings.
system-under-test: Bile acid receptor (Homo sapiens, UniProt Q96RI1)
Sequence (Q96RI1 whole entry, the tested form may be a part): as above
protocol-notes: Agonist activity at FXR (unknown origin) assessed as ligand-mediated interaction of the SRC1 peptide with protein LBD by FRET assay
Give a bare numeral; the unit µM is implied.

Solved entries (count: 3):
- smiles-data: "CC(C)c1occ(COc2c(Cl)cccc2Cl)c1COc1ccc(/C=C/c2cccc(C(=O)O)c2)c(Cl)c1"
  u: "µM"
  EC50: 1.23
- smiles-data: "CC(C)n1cnc(COc2c(Cl)cccc2Cl)c1COc1ccc(/C=C/c2cccc(C(=O)O)c2)c(Cl)c1"
  u: "µM"
  EC50: 0.309
- smiles-data: "CC(C)n1nnc(-c2c(Cl)cccc2Cl)c1COc1ccc(/C=C/c2cccc(C(=O)O)c2)c(Cl)c1"
  u: "µM"
  EC50: 0.123

Look at this molecule and give its reported EC50. CC(C)c1nnn(-c2c(Cl)cccc2Cl)c1COc1ccc(/C=C/c2cccc(C(=O)O)c2)c(Cl)c1
0.112

----------
system-under-test: Bile acid receptor (Homo sapiens)
protocol-notes: Agonist activity at FXR (unknown origin) transfected into african green monkey CV1 cells assessed as ligand-mediated transcription by luciferase reporter/ transient transfection assay relative to GW4064
Format: cell-based
conditions: CV-1
Form field: Emax (one value per entry).

Worked cases, answers included:
- smiles-data: "CC(C)c1ncn(CCc2c(Cl)cccc2Cl)c1COc1ccc(/C=C/c2cccc(C(=O)O)c2)c(Cl)c1"
  system-under-test: "Bile acid receptor (Homo sapiens)"
  Emax: "35%"
- smiles-data: "CC(C)c1nnn(-c2c(Cl)cccc2Cl)c1COc1ccc(/C=C/c2cccc(C(=O)O)c2)c(Cl)c1"
  system-under-test: "Bile acid receptor (Homo sapiens)"
  Emax: "125%"

Next up:
Notebook entry, Bile acid receptor (Homo sapiens) assay: Emax of CC(C)n1cnc(COc2c(Cl)cccc2Cl)c1COc1ccc(/C=C/c2cccc(C(=O)O)c2)c(Cl)c1 = ?
62%
